Reported values of % Inucl'n (percent reduction in maximum observed turbidity) for individual entries
- Target system: Aβ1-40 (Homo sapiens, UniProt P05067)
- Construct: (β-AP1-40) was obtained commercially from Bachem (Torrance, Calif.); purchased Bachem (Torrance, Calif.)
- Sequence (P05067 672-711): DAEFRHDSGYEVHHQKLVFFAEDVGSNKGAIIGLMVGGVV
- Protocol details: Nucleation assay (turbidity, A405 nm);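 further: synthetic Aβ monomer polymerization followed by turbidity in 96-well plates with continuous shaking, read every 15 minutes over 5 hours, compared against wells lacking test compound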
- Assay type: biochemical
- Condition description: Table V; 100 mole % inhibitor
Kindly answer with a numeric value in %, unit omitted.

Answered cases to consult:
Compound: CC(C)C[C@H](NC(=O)[C@@H](N)CCCCN)C(=O)N[C@H](C(=O)N[C@@H](Cc1ccccc1)C(=O)N[C@@H](Cc1ccccc1)C(N)=O)C(C)C [PPI-387]
Reported measurement: −9
--
Compound: CC(C)C[C@H](N)C(=O)N[C@H](C(=O)N[C@@H](Cc1ccccc1)C(=O)N[C@@H](Cc1ccccc1)C(=O)N[C@@H](C)C(N)=O)C(C)C [PPI-405]
Reported measurement: 11
--
Compound: CC(C)C[C@H](N)C(=O)N[C@H](C(=O)N[C@@H](Cc1ccccc1)C(=O)N[C@@H](Cc1ccccc1)C(=O)N[C@@H](C)C(=O)O)C(C)C [PPI-386]
Reported measurement: 15

Pending compound:
Input line: // % Inucl'n (percent reduction in maximum observed turbidity) lookup, key: CC(C)C[C@H](NC(=O)OC(C)(C)C)C(=O)N[C@H](C(=O)N[C@@H](Cc1ccccc1)C(=O)N[C@@H](Cc1ccccc1)C(=O)N[C@@H](C)C(=O)O)C(C)C [PPI-435]
Output line: −5
